# Test system: ShKAI2iB (Striga hermonthica, UniProt A0A0M3PN85, C270S)
# Sequence (A0A0M3PN85 1-270 C270S): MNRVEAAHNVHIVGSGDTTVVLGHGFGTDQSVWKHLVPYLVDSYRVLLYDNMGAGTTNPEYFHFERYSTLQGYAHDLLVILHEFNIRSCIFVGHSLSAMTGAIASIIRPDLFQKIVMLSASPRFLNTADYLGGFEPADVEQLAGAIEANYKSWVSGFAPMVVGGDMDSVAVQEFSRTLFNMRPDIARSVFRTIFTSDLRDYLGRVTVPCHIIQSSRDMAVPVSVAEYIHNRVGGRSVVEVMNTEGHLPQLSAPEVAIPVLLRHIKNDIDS
# Assay name: ITC binding to ShKAI2iB (wild type)
Value kind: Kd (µM)
One number for each entry, in µM.

Value wanted: Kd (ShKAI2iB (Striga hermonthica, UniProt A0A0M3PN85, C270S)) of entry Cc1c2ccocc-2oc1=O [KAR1, 3-methyl-2H-furo [2,3-c] pyran-2-one] 77.6

====

# Test system: ShKAI2iB L142A (Striga hermonthica, UniProt A0A0M3PN85, C270S/L142A)
# Sequence (A0A0M3PN85 1-270 L142A/C270S): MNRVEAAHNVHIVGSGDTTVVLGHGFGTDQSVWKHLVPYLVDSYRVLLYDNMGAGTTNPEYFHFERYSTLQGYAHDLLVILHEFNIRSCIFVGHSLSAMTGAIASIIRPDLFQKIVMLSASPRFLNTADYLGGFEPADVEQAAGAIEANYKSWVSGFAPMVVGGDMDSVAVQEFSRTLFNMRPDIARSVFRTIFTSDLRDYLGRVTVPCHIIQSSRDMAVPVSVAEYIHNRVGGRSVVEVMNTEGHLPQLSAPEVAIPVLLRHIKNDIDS
# Assay name: ITC binding to ShKAI2iB L142A mutant
Value kind: pKd
Numbers only, as −log10 of the molar value.

Data request, read-out pKd, for Cc1c2ccocc-2oc1=O [KAR1, 3-methyl-2H-furo [2,3-c] pyran-2-one] 3.71
